Where do the numbers come from? From paper PMC3823643.

STUDY TARGET: E. coli dihydrofolate reductase (ecDHFR) (Escherichia coli, UniProt P0ABQ4)
pIC50: −log10 of the molar value.
REPORTED PROPERTY: pIC50

[[record]]
molecule = "NC(=O)c1ccc[n+]([C@@H]2O[C@H](COP(=O)(O)OP(=O)(O)OC[C@H]3O[C@@H](n4cnc5c(N)ncnc54)[C@H](OP(=O)(O)O)[C@@H]3O)[C@@H](O)[C@H]2O)c1 [NADP+, NADP^+]"
result_value = 2.19


* * *

STUDY TARGET: E. coli dihydrofolate reductase (ecDHFR) N23PP S148A (Escherichia coli, UniProt P0ABQ4, INS23P/N23P/S148A)
ASSAY NOTES: product inhibition of initial rate, absorbance at […] nm
REPORTED PROPERTY: IC50 (µM)

[[record]]
smiles_notation = "NC(=O)c1ccc[n+]([C@@H]2O[C@H](COP(=O)(O)OP(=O)(O)OC[C@H]3O[C@@H](n4cnc5c(N)ncnc54)[C@H](OP(=O)(O)O)[C@@H]3O)[C@@H](O)[C@H]2O)c1"
reported_property = "IC50"
unit_of_measure = "µM"
result_value = 1270

